src = paper PMC3445454

The entries below are paired with their reported IC50.
molecular target: HLA-DR DRB1*04:05 (Homo sapiens, UniProt P01903+P01911, A100R/A169T/D86S/F76Y/I96L/K127E/L162R/M171V/N62H/P40V/Q125Y/R42H/S133A/S149N/S66Y/V115G/V209L/W38E); test: biochemical; type: binding; conditions: read-out: Binding capacity/IC50 (nM) DRB1*04:05

{"columns": ["compound", "IC50, nM"],
 "data": [
  ["CC[C@H](C)[C@H](NC(=O)[C@@H](NC(=O)[C@H](CCCCN)NC(=O)[C@@H](NC(=O)[C@@H]1CCCN1C(=O)[C@H](Cc1c[nH]c2ccccc12)NC(=O)[C@H](CCCNC(=N)N)NC(=O)CNC(=O)[C@H](C)NC(=O)[C@H](CC(C)C)NC(=O)[C@H](CCCCN)NC(=O)[C@H](CC(C)C)NC(=O)[C@@H](NC(=O)[C@H](Cc1ccccc1)NC(=O)[C@H](Cc1ccc(O)cc1)NC(=O)[C@H](C)NC(=O)[C@@H](NC(=O)[C@@H](N)CCC(=O)O)[C@@H](C)O)[C@@H](C)CC)C(C)C)C(C)C)C(N)=O [integrase(96-113)]", 629],
  ["CC[C@H](C)[C@H](NC(=O)[C@@H]1CCCN1C(=O)[C@H](CCC(=O)O)NC(=O)[C@@H](N)CCCCN)C(=O)N[C@H](C(=O)NCC(=O)N[C@@H](C)C(=O)N[C@@H](CCC(=O)O)C(=O)N[C@H](C(=O)N[C@@H](Cc1ccccc1)C(=O)N[C@@H](Cc1ccc(O)cc1)C(=O)N[C@H](C(=O)N[C@@H](CC(=O)O)C(=O)NCC(=O)N[C@@H](C)C(N)=O)C(C)C)[C@@H](C)O)C(C)C [RT(431-445)]", 50],
  ["CC[C@H](C)[C@H](NC(=O)[C@H](Cc1ccc(O)cc1)NC(=O)CNC(=O)[C@H](CO)NC(=O)[C@H](C)NC(=O)[C@@H](NC(=O)[C@H](Cc1c[nH]cn1)NC(=O)[C@@H](NC(=O)[C@H](C)NC(=O)[C@@H](NC(=O)[C@H](CC(C)C)NC(=O)[C@@H](NC(=O)[C@@H](NC(=O)[C@H](CCCCN)NC(=O)CNC(=O)[C@@H](N)CCC(=O)O)[C@@H](C)CC)[C@@H](C)CC)C(C)C)C(C)C)C(C)C)C(=O)N[C@@H](CCC(=O)O)C(N)=O [integrase(69-85)]", 430],
  ["CC[C@H](C)[C@H](NC(=O)CNC(=O)[C@H](CCCCN)NC(=O)[C@H](Cc1c[nH]cn1)NC(=O)[C@H](C)NC(=O)[C@@H]1CCCN1C(=O)[C@@H](NC(=O)[C@H](Cc1c[nH]c2ccccc12)NC(=O)[C@H](CO)NC(=O)[C@H](CC(C)C)NC(=O)[C@H](Cc1ccc(O)cc1)NC(=O)[C@@H](NC(=O)[C@H](CCCCN)NC(=O)[C@H](CCC(=O)O)NC(=O)[C@@H](N)CCCCN)C(C)C)C(C)C)C(=O)NCC(=O)NCC(=O)N[C@@H](CC(N)=O)C(=O)N[C@@H](CCC(=O)O)C(N)=O [RT(528-546)]", 41]
]}

---

target: HLA-DR DRB1*13:02 (Homo sapiens, UniProt P01903+P01911, A100E/A169T/K41T/L162R/M171V/P40S/Q125H/Q178H/Q39Y/Q99D/R42S/S66N/T262R/V115G/W38E/Y61H); assay: biochemical; type: binding
Sequence (P01903 26-254 limits assumed, other chains not shown): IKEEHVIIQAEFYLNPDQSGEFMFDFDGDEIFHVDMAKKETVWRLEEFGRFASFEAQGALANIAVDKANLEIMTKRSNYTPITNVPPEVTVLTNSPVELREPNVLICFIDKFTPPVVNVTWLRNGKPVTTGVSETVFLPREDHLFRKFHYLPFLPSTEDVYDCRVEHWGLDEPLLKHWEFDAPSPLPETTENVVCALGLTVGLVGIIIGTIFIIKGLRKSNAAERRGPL
Ends that are not written are not given here.

{"columns": ["substance", "quantity.unit", "IC50"],
 "data": [
  ["VGSLQYLALTALITPKK-NH2 [vif(142-158)]", "µM", 0.0071],
  ["VVIQDNSDIKVVPRRKAKII-NH2 [integrase(249-268)]", "µM", 5.42]
]}
